Hello, the source for this data is patent US10988459B2, in case you need it.

biological target: human RIP1 kinase domain (2-375) (Homo sapiens (Human)); assay: biochemical; type: biochemical; conditions: tight-binding apparent inhibition constant; human RIP1 kinase domain (2-375) 50 nM, 50 uM ATP, 2 hours; read-out: Ki
Sequence (Q13546 2-375): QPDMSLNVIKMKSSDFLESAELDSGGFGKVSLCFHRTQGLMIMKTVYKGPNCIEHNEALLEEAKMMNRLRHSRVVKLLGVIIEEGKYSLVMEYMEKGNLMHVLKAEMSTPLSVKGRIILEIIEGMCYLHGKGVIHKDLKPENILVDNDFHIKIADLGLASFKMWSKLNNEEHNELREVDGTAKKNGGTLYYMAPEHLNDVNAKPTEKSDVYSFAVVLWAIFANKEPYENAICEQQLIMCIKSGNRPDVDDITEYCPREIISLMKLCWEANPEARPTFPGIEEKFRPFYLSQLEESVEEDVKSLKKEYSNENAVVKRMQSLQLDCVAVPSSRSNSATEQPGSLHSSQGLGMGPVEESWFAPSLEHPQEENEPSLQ
EXPERIMENTAL READOUT: Ki (nM)
Give bare numbers, in nM.

Consider the following illustrative entries.
CN1C(=O)C(NC(=O)c2ncn(Cc3ccccc3)n2)CCn2nc(C(C)(C)F)cc21 (single isomer, unassigned) [Example 370] :: 555
CC(O)c1cc2n(n1)CC[C@H](NC(=O)c1ncn(Cc3ccccc3)n1)C(=O)N2C (single isomer, unassigned) [Example 367] :: 161
Cc1cc2n(n1)CC[C@H](NC(=O)c1ncn(CC3CCOC3)n1)C(=O)N2C (stereo partly shown) :: 2800
Cc1cc2n(n1)CC[C@H](NC(=O)c1ncn(CC3CCCO3)n1)C(=O)N2C (stereo partly shown) :: 1300
CN1C(=O)[C@@H](NC(=O)c2ncn(Cc3ccccc3C#N)n2)CCn2nccc21 :: 370

Hi there! I need Ki for each item below, if you can.
1. Cc1cnc2n1CCC(NC(=O)c1ncn(Cc3ccccc3)n1)C(=O)N2C (stereo not shown)
2. CCC[C@@H]1CCCc2nc(C(=O)N[C@H]3CCc4cc(F)cc(F)c4NC3=O)nn21 (single isomer, unassigned)

Response line:
1: 220; 2: 8.43
